- Tested on: Staphylococcus aureus
- measurementDescription: Minimum inhibitory concentration against Staphylococcus aureus Tour evaluated in vitro
- Type: functional
- runParameters: Staphylococcus aureus; read-out: MIC
Quick reference: MIC of the listed items.
Write down the numeric answer in µg/mL and omit the unit.

In the examples that follow, each entry is paired with its recorded MIC.
{"columns": ["compound", "MIC (µg/mL)"],
 "data": [
  ["N[C@H]1C(=O)N[C@@H]2Cc3ccc(c(Cl)c3)Oc3cc4cc(c3O)Oc3ccc(cc3Cl)[C@@H](O)[C@@H]3NC(=O)[C@H](NC(=O)[C@@H]4NC(=O)[C@@H](NC2=O)c2cc(O)cc(c2)Oc2cc1ccc2O)c1ccc(O)c(c1)-c1c(O)cc(O)cc1[C@@H](C(=O)O)NC3=O [TEICOPLANIN AGLYCON]", 0.063],
  ["CCCCC/C=C/CCC(=O)N[C@@H]1[C@H](Oc2c3cc4cc2Oc2ccc(cc2Cl)CC2NC(=O)[C@H](N)c5ccc(O)c(c5)Oc5cc(O)cc(c5)C(NC2=O)C(=O)NC4C(=O)NC2C(=O)/N=C(\\Cc4ccc(c(Cl)c4)O3)C(=O)N[C@H](C(=O)O)c3cc(O)cc(O[C@H]4O[C@H](CO)[C@@H](O)[C@@H](O)[C@@H]4O)c3-c3cc2ccc3O)O[C@@H](CO)[C@@H](O)[C@@H]1O (stereo partly drawn)", 0.5]
]}

Here is another compound to look at.
Quote MIC reported for N[C@H]1C(=O)NC2Cc3ccc(c(Cl)c3)Oc3cc4cc(c3O)Oc3ccc(cc3Cl)/C=C3\NC(=O)C(NC(=O)C4NC(=O)C(NC2=O)c2cc(O)cc(c2)Oc2cc1ccc2O)c1ccc(O)c(c1)-c1c(O)cc(O)cc1[C@@H](C(=O)O)NC3=O (stereo in doubt; 5) please.
2

---

Quick reference: MIC of the listed items.
- System: Staphylococcus epidermidis
- measurementDescription: Minimum inhibitory concentration against Staphylococcus epidermis ATCC 12228 evaluated in vitro
- Format: functional
- runParameters: Staphylococcus epidermidis, ATCC 12228; read-out: MIC
Write down the numeric answer in µg/mL and omit the unit.

{"columns": ["recordSmiles", "unitLabel", "MIC"],
 "data": [
  ["CC(=O)N[C@@H]1[C@H](O[C@@H]2c3ccc(c(Cl)c3)Oc3cc4cc(c3O)Oc3ccc(cc3Cl)C[C@H]3NC(=O)[C@H](N)c5ccc(O)c(c5)Oc5cc(O)cc(c5)[C@H](NC3=O)C(=O)N[C@H]4C(=O)N[C@H]3C(=O)N[C@@H]2C(=O)N[C@H](C(=O)O)c2cc(O)cc(O)c2-c2cc3ccc2O)O[C@@H](CO)[C@@H](O)[C@@H]1O", "µg/mL", 0.125]
]}

Quote MIC reported for CCCCC/C=C/CCC(=O)N[C@@H]1[C@H](Oc2c3cc4cc2Oc2ccc(cc2Cl)[C@@H](O[C@@H]2O[C@@H](CO)[C@@H](O)[C@H](O)[C@@H]2NC(C)=O)[C@@H]2NC(=O)[C@H](NC(=O)[C@@H]4NC(=O)[C@H]4NC(=O)[C@@H](Cc5ccc(c(Cl)c5)O3)NC(=O)[C@H](N)c3ccc(O)c(c3)Oc3cc(O)cc4c3)c3ccc(O)c(c3)-c3c(O[C@H]4O[C@H](CO)[C@@H](O)[C@@H](O)[C@@H]4O)cc(O)cc3[C@@H](C(=O)O)NC2=O)O[C@@H](CO)[C@@H](O)[C@@H]1O please.
0.25
